# System: 485368-065-R4-J2-PDC spheroids with HUVEC/MSC, viability;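 also: spheroids exposed to compounds for seven days; 100% = DMSO vehicle control wells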
# assay.remarks: Anticancer human tumor 485368-065-R4-J2-PDC patient-derived pancreatic carcinoma cell line growth inhibition [CLK]
# protocol.conditions: second compound 0.1 µM; first compound 0.0316 µM; stronger effect = lower value
assay.metric: viability, T/C (%)

>>> observed_measurement("CC(Nc1ccc2c(c1)OCCn1cc(N3C(=O)OCC3C(F)F)nc1-2)C(N)=O (stereo unspecified) + CNC(=O)c1ccc(Nc2nc(OC3CCCC3)c3c(-c4ccc5nc(C)oc5c4)c[nH]c3n2)c(OC)c1")
92.3
>>> observed_measurement("CCN1CCN(Cc2ccc(Nc3ncc(F)c(-c4cc(F)c5nc(C)n(C(C)C)c5c4)n3)nc2)CC1 + CNC(=O)c1ccc(Nc2nc(OC3CCCC3)c3c(-c4ccc5nc(C)oc5c4)c[nH]c3n2)c(OC)c1")
93
>>> observed_measurement("Nc1ccccc1NC(=O)c1ccc(CNC(=O)OCc2cccnc2)cc1 + CNC(=O)c1ccc(Nc2nc(OC3CCCC3)c3c(-c4ccc5nc(C)oc5c4)c[nH]c3n2)c(OC)c1")
92.1
>>> observed_measurement("CC(CO)NC(=O)c1cc(-c2ccc(Cl)cc2)nn(-c2cnn(C)c2)c1=O (stereo unspecified) + CN1CCN(c2cc(C(=O)Nc3cc4cc(-c5cnn(C)c5)ccc4cn3)ccn2)CC1")
114
>>> observed_measurement("CCN1CCN(Cc2ccc(Nc3ncc(F)c(-c4cc(F)c5nc(C)n(C(C)C)c5c4)n3)nc2)CC1 + CN1CCN(c2cc(C(=O)Nc3cc4cc(-c5cnn(C)c5)ccc4cn3)ccn2)CC1")
113
>>> observed_measurement("CC(CO)NC(=O)c1cc(-c2ccc(Cl)cc2)nn(-c2cnn(C)c2)c1=O (stereo unspecified) + CNC(=O)c1ccc(Nc2nc(OC3CCCC3)c3c(-c4ccc5nc(C)oc5c4)c[nH]c3n2)c(OC)c1")
90.5
>>> observed_measurement("O=c1[nH]cc(F)c(=O)[nH]1 + CNC(=O)c1ccc(Nc2nc(OC3CCCC3)c3c(-c4ccc5nc(C)oc5c4)c[nH]c3n2)c(OC)c1")
95.5
>>> observed_measurement("COc1c(OCCCN2CCOCC2)ccc2c3n(c(=NC(=O)c4cnc(N)nc4)nc12)CCN3 + CNC(=O)c1ccc(Nc2nc(OC3CCCC3)c3c(-c4ccc5nc(C)oc5c4)c[nH]c3n2)c(OC)c1")
110
>>> observed_measurement("COC1C=CCC(C)C(C)S(=O)(=O)NC(=O)c2ccc3c(c2)N(CC2CCC21)CC1(CCCc2cc(Cl)ccc21)CO3 (stereo unspecified) + CNC(=O)c1ccc(Nc2nc(OC3CCCC3)c3c(-c4ccc5nc(C)oc5c4)c[nH]c3n2)c(OC)c1")
96
>>> observed_measurement("CCc1c2c(nc3ccc(O)cc13)-c1cc3c(c(=O)n1C2)COC(=O)[C@]3(O)CC + CNC(=O)c1ccc(Nc2nc(OC3CCCC3)c3c(-c4ccc5nc(C)oc5c4)c[nH]c3n2)c(OC)c1")
12.6
>>> observed_measurement("COc1cccc2c1C(=O)c1c(O)c3c(c(O)c1C2=O)CC(O)(C(=O)CO)CC3OC1CC(N)C(O)C(C)O1 (stereo unspecified) + CN1CCN(c2cc(C(=O)Nc3cc4cc(-c5cnn(C)c5)ccc4cn3)ccn2)CC1")
95.9
